Origin of measurements: patent US20180030151A1

ASSAYED_TARGET: T1, recombinant human TFPI (tissue factor pathway inhibitor) (human, UniProt P10646 29-304)
T1 construct: Biotin-conjugated in the yeast FACS; also called hTFPI; TFPI antigen
ASSAY_PROTOCOL: yeast-display scFv, FACS with biotinylated TFPI
MEASURED_ATTRIBUTE: binding result

BINDER	MEASURED_ATTRIBUTE	REPORTED
clone 1248 (antibody, V domains shown, scFv on yeast at selection; human IgG4/kappa IgG as purified) VH: EVQLVESGGGLVKPGGSLRLSCAASGFTFSSYAMNWVRQAPGKGLEWVSTITTGGSHTYYADSVDGRFTISRDNAKNSLYLQMNSLRAEDTAVYYCARQDGHFLMDYWGQGTLVTVSS VL: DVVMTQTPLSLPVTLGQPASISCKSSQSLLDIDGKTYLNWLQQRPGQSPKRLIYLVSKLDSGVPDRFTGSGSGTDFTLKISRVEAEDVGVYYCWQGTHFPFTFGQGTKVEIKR	binding result	binds
clone 15 (antibody, V domains shown, human IgG4/kappa IgG as purified) VH: EVQLVESGGGLVKPGGSLRLSCAASGFTFSKYAMNWFRQAPGKGLEWVSTITTGGSYTYYADSVEGRFTISRDNAKNSLYLQMNSLRAEDTAVYYCARQHPYGNFLMDYWGQGTLVTVSS VL: DVVMTQTPLSLPVTLGQPASISCKSSPSLLDSDGKTYLNWLQQRPGQSPKRLIYLVSKLDSGVPDRFTGSGSGTDFTLKISRVEAEDVGVYYCWQGFYFPFTFGQGTKVEIKR	binding result	binds
clone 14 (antibody, V domains shown, human IgG4/kappa IgG as purified) VH: EVQLVESGGGLVKPGGSLRLSCAASGFTFSKYAMNWFRQAPGKGLEWVSTITLGGSYTYYADSVDGRFTISRDNAKNSLYLQMNSLRAEDTAVYYCARQYLDGNFLMDYWGQGTLVTVSS VL: DVVMTQTPLSLPVTLGQPASISCKSSPSLLDSDGKTYLNWLQQRPGQSPKRLIYLVSKLDSGVPDRFTGSGSGTDFTLKISRVEAEDVGVYYCWQGTYFPFTFGQGTKVEIKR	binding result	binds
